Reference source for all entries: the supplement of paper PMC10307832

Entries and their relative viability values follow.
# Test system: HARA
# procedure.details: relative viability (nuclei count vs DMSO), 5 days (fraction); higher = more cells survive
# experimental.conditions: first compound 0.3162 µM
I only need the number, thanks.

// solved cases for relative viability follow
O=c1cc(N2CCOCC2)oc2c(-c3cccc4c3sc3ccccc34)cccc12 + CC1(C)CCC(c2ccc(Cl)cc2)=C(CN2CCN(c3ccc(C(=O)NS(=O)(=O)c4ccc(N[C@H](CCN5CCOCC5)CSc5ccccc5)c(S(=O)(=O)C(F)(F)F)c4)cc3)CC2)C1 [Navitoclax] (partner 0.5 µM) ... 1.17
CCN(CC)CCCCNc1ncc2cc(-c3cc(OC)cc(OC)c3)c(NC(=O)NC(C)(C)C)nc2n1 + CCNC(=O)c1noc(-c2cc(C(C)C)c(O)cc2O)c1-c1ccc(CN2CCOCC2)cc1 [Luminespib] (partner 0.01 µM) ... 0.904
O=c1cc(N2CCOCC2)oc2c(-c3cccc4c3sc3ccccc34)cccc12 + O=C(c1cc(Cc2n[nH]c(=O)c3ccccc23)ccc1F)N1CCN(C(=O)C2CC2)CC1 [Olaparib] (partner 8 µM) ... 0.972
O=c1cc(N2CCOCC2)oc2c(-c3cccc4c3sc3ccccc34)cccc12 + COc1cc2c(Oc3ccc(NC(=O)C4(C(=O)Nc5ccc(F)cc5)CC4)cc3F)ccnc2cc1OCCCN1CCOCC1 [Foretinib] (partner 0.25 µM) ... 0.864
O=c1cc(N2CCOCC2)oc2c(-c3cccc4c3sc3ccccc34)cccc12 + Cc1nc(Nc2ncc(C(=O)Nc3c(C)cccc3Cl)s2)cc(N2CCN(CCO)CC2)n1 [Dasatinib] (partner 0.075 µM) ... 0.268
O=c1cc(N2CCOCC2)oc2c(-c3cccc4c3sc3ccccc34)cccc12 + CC(=O)c1c(C)c2cnc(Nc3ccc(N4CCNCC4)cn3)nc2n(C2CCCC2)c1=O [Palbociclib] (partner 0.5 µM) ... 0.278
CCN(CC)CCCCNc1ncc2cc(-c3cc(OC)cc(OC)c3)c(NC(=O)NC(C)(C)C)nc2n1 + Nc1nc2[nH]cc(CCc3ccc(C(=O)N[C@@H](CCC(=O)O)C(=O)O)cc3)c2c(=O)[nH]1 [Pemetrexed] (partner 0.2 µM) ... 0.22
CCN(CC)CCCCNc1ncc2cc(-c3cc(OC)cc(OC)c3)c(NC(=O)NC(C)(C)C)nc2n1 + CC(=O)c1c(C)c2cnc(Nc3ccc(N4CCNCC4)cn3)nc2n(C2CCCC2)c1=O [Palbociclib] (partner 0.5 µM) ... 0.223
CCN(CC)CCCCNc1ncc2cc(-c3cc(OC)cc(OC)c3)c(NC(=O)NC(C)(C)C)nc2n1 + O=C(c1cc(Cc2n[nH]c(=O)c3ccccc23)ccc1F)N1CCN(C(=O)C2CC2)CC1 [Olaparib] (partner 8 µM) ... 0.811

The compound identified as CCN(CC)CCCCNc1ncc2cc(-c3cc(OC)cc(OC)c3)c(NC(=O)NC(C)(C)C)nc2n1 + COc1cccc2cc(-c3nc([C@H]4CC[C@H](C(=O)O)CC4)n4ncnc(N)c34)[nH]c12 [OSI-027] (partner 0.5 µM) registered its relative viability at 0.697

* * *

# Tested on: NCI-H2009
# procedure.details: relative viability (nuclei count vs DMSO), 5 days (fraction); higher = more cells survive
# experimental.conditions: first compound 0.1 µM
measured.metric: relative viability
I only need the number, thanks.

CCN(CC)CCCCNc1ncc2cc(-c3cc(OC)cc(OC)c3)c(NC(=O)NC(C)(C)C)nc2n1 + Nc1ncn([C@H]2C[C@H](O)[C@@H](CO)O2)c(=O)n1 [Decitabine] (partner 2 µM) ... 0.35
CCN(CC)CCCCNc1ncc2cc(-c3cc(OC)cc(OC)c3)c(NC(=O)NC(C)(C)C)nc2n1 + C[C@@H](Oc1cc(-c2cnn(C3CCNCC3)c2)cnc1N)c1c(Cl)ccc(F)c1Cl [Crizotinib] (partner 1 µM) ... 1.13
O=c1cc(N2CCOCC2)oc2c(-c3cccc4c3sc3ccccc34)cccc12 + CC(C)C[C@H](NC(=O)[C@H](Cc1ccccc1)NC(=O)c1cnccn1)B(O)O [Bortezomib] (partner 0.002 µM) ... 0.89

The compound identified as O=c1cc(N2CCOCC2)oc2c(-c3cccc4c3sc3ccccc34)cccc12 + O=C(c1cc(Cc2n[nH]c(=O)c3ccccc23)ccc1F)N1CCN(C(=O)C2CC2)CC1 [Olaparib] (partner 8 µM) registered its relative viability at 0.592

The compound identified as CCN(CC)CCCCNc1ncc2cc(-c3cc(OC)cc(OC)c3)c(NC(=O)NC(C)(C)C)nc2n1 + Cc1nc(NC(=O)N2CCC[C@H]2C(N)=O)sc1-c1ccnc(C(C)(C)C(F)(F)F)c1 [Alpelisib] (partner 2 µM) registered its relative viability at 1.24

* * *

# System: NCI-H650
# procedure.details: relative viability (nuclei count vs DMSO), 5 days (fraction); higher = more cells survive
# experimental.conditions: first compound 2 µM
Entries and their relative viability values follow.
I only need the number, thanks.

Fill in: NCI-H650 relative viability for COCC1(CO)C(=O)C2CCN1CC2 (stereo not given) [PRIMA-1MET] + COc1cc2c(Oc3ccc(NC(=O)C4(C(=O)Nc5ccc(F)cc5)CC4)cc3F)ccnc2cc1OCCCN1CCOCC1 [Foretinib] (partner 0.25 µM) = 0.917

Fill in: NCI-H650 relative viability for COCC1(CO)C(=O)C2CCN1CC2 (stereo not given) [PRIMA-1MET] + NC(=O)Nc1cc(-c2cccc(F)c2)sc1C(=O)N[C@H]1CCCNC1 [AZD7762] (partner 0.2 µM) = 0.983

* * *

# Test system: SW 1573
# procedure.details: relative viability (nuclei count vs DMSO), 5 days (fraction); higher = more cells survive
# experimental.conditions: first compound 2 µM
measured.metric: relative viability
I only need the number, thanks.

COCC1(CO)C(=O)C2CCN1CC2 (stereo not drawn) [PRIMA-1MET] + N=C(N)NC(=N)NCCc1ccccc1 [Phenformin] (partner 250 µM) ... 0.393

The compound identified as COCC1(CO)C(=O)C2CCN1CC2 (stereo not drawn) [PRIMA-1MET] + COc1cc2c(Oc3ccc(NC(=O)C4(C(=O)Nc5ccc(F)cc5)CC4)cc3F)ccnc2cc1OCCCN1CCOCC1 [Foretinib] (partner 0.25 µM) registered its relative viability at 0.777

The compound identified as COCC1(CO)C(=O)C2CCN1CC2 (stereo not drawn) [PRIMA-1MET] + CC(=O)c1c(C)c2cnc(Nc3ccc(N4CCNCC4)cn3)nc2n(C2CCCC2)c1=O [Palbociclib] (partner 0.5 µM) registered its relative viability at 0.345

* * *

# Test system: SK-LU-1
# procedure.details: relative viability (nuclei count vs DMSO), 5 days (fraction); higher = more cells survive
# experimental.conditions: first compound 0.6325 µM
measured.metric: relative viability
I only need the number, thanks.

// solved cases for relative viability follow
COCC1(CO)C(=O)C2CCN1CC2 (stereo unspecified) [PRIMA-1MET] + O=C(CCCCCCC(=O)Nc1ccccc1)NO [Vorinostat] (partner 1 µM) ... 0.761
COCC1(CO)C(=O)C2CCN1CC2 (stereo unspecified) [PRIMA-1MET] + Cc1cc(Nc2cc(N3CCN(C)CC3)nc(Sc3ccc(NC(=O)C4CC4)cc3)n2)n[nH]1 [Tozasertib] (partner 0.1 µM) ... 0.371
COCC1(CO)C(=O)C2CCN1CC2 (stereo unspecified) [PRIMA-1MET] + C[C@@H](Oc1cc(-c2cnn(C3CCNCC3)c2)cnc1N)c1c(Cl)ccc(F)c1Cl [Crizotinib] (partner 1 µM) ... 0.729
COCC1(CO)C(=O)C2CCN1CC2 (stereo unspecified) [PRIMA-1MET] + C[C@]1(O)C[C@@H](c2nc(-c3ccc4ccc(-c5ccccc5)nc4c3)c3c(N)nccn32)C1 [Linsitinib] (partner 1 µM) ... 1.03
COCC1(CO)C(=O)C2CCN1CC2 (stereo unspecified) [PRIMA-1MET] + CC1(C)CCC(c2ccc(Cl)cc2)=C(CN2CCN(c3ccc(C(=O)NS(=O)(=O)c4ccc(N[C@H](CCN5CCOCC5)CSc5ccccc5)c(S(=O)(=O)C(F)(F)F)c4)cc3)CC2)C1 [Navitoclax] (partner 0.5 µM) ... 1.06

Pending compound:
The compound identified as COCC1(CO)C(=O)C2CCN1CC2 (stereo unspecified) [PRIMA-1MET] + CS(=O)(=O)CCNCc1ccc(-c2ccc3ncnc(Nc4ccc(OCc5cccc(F)c5)c(Cl)c4)c3c2)o1 [Lapatinib] (partner 2 µM) registered its relative viability at 0.667

* * *

# Test system: NCI-H1395
# procedure.details: relative viability (nuclei count vs DMSO), 5 days (fraction); higher = more cells survive
# experimental.conditions: first compound 0.3162 µM
Entries and their relative viability values follow.
I only need the number, thanks.

// solved cases for relative viability follow
O=c1cc(N2CCOCC2)oc2c(-c3cccc4c3sc3ccccc34)cccc12 + O=C(c1cc(Cc2n[nH]c(=O)c3ccccc23)ccc1F)N1CCN(C(=O)C2CC2)CC1 [Olaparib] (partner 8 µM) ... 0.467
O=c1cc(N2CCOCC2)oc2c(-c3cccc4c3sc3ccccc34)cccc12 + Nc1ncn([C@H]2C[C@H](O)[C@@H](CO)O2)c(=O)n1 [Decitabine] (partner 2 µM) ... 0.701
CCN(CC)CCCCNc1ncc2cc(-c3cc(OC)cc(OC)c3)c(NC(=O)NC(C)(C)C)nc2n1 + Cc1nc(Nc2ncc(C(=O)Nc3c(C)cccc3Cl)s2)cc(N2CCN(CCO)CC2)n1 [Dasatinib] (partner 0.075 µM) ... 0.386
CCN(CC)CCCCNc1ncc2cc(-c3cc(OC)cc(OC)c3)c(NC(=O)NC(C)(C)C)nc2n1 + CS(=O)(=O)CCNCc1ccc(-c2ccc3ncnc(Nc4ccc(OCc5cccc(F)c5)c(Cl)c4)c3c2)o1 [Lapatinib] (partner 2 µM) ... 0.725

The molecule identified as O=c1cc(N2CCOCC2)oc2c(-c3cccc4c3sc3ccccc34)cccc12 + CS(=O)(=O)N1CCN(Cc2cc3nc(-c4cccc5[nH]ncc45)nc(N4CCOCC4)c3s2)CC1 [Pictilisib] (partner 1 µM) registered its relative viability at 0.623
